Below, each of the molecules is paired with its reported Num Ave Size (nm) value.
test: LNP average particle size and polydispersity by dynamic light scattering; format: physicochemical; conditions: LNP with the compound as amine lipid; Expt. 6; composition ratio (mol %) 50/9/38/3 for Cmpnd 49, 50/10/38.5/1.5 for the others
Expressed in nm, but write only the number.

Take a look at these entries with their results.
Ask | Quick one: give measured Num Ave Size (nm) for CCCCC/C=C\C/C=C\CCCCCCCC(=O)OCC(COC(=O)CCCCCCC/C=C\C/C=C\CCCCC)OC(=O)CC[C@H](CCCCCCCC)OC(=O)NCCN(C)CC
Reply | 73

Ask | Quick one: give measured Num Ave Size (nm) for CCCCC/C=C\C/C=C\CCCCCCCC(=O)OCC(COC(=O)CCCCCCC/C=C\C/C=C\CCCCC)OC(=O)CCC(CCCCCCCC)OC(=O)NCCN(C)CC (stereo not drawn)
Reply | 73

Ask | Quick one: give measured Num Ave Size (nm) for CCCCC/C=C\C/C=C\CCCCCCCC(=O)OCC(COC(=O)CCCCCCC/C=C\C/C=C\CCCCC)OC(=O)C1(C(CCCCCCCC)OC(=O)NCCN(C)CC)CC1 (stereo not drawn)
Reply | 68

Others:
Ask | Quick one: give measured Num Ave Size (nm) for CCCCC/C=C\C/C=C\CCCCCCCC(=O)OCC(COC(=O)CCCCCCC/C=C\C/C=C\CCCCC)OC(=O)CCC(CC(CC)CC)OC(=O)NCCN(C)CC (stereo not drawn)
Reply | 82

Ask | Quick one: give measured Num Ave Size (nm) for CCCCC/C=C\C/C=C\CCCCCCCC(=O)OCC(COC(=O)CCCCCCC/C=C\C/C=C\CCCCC)OC(=O)CC[C@@H](CCCCCCCC)OC(=O)NCCN(C)CC
Reply | 63

Ask | Quick one: give measured Num Ave Size (nm) for CCCCC/C=C\C/C=C\CCCCCCCC(=O)OCC(COC(=O)CCC(OCCCCCCCC)OCCCCCCCC)COC(=O)OCCCN(CC)CC (stereo not drawn) [Compound 49, reference compound]
Reply | 74
